- protocol description: Absorption by oral administration in monkey (plasma concentration, thin layer cup bio-assay);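 note: plasma concentration in γ/ml (µg/mL) rather than the printed ng/mL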
- Assay type: in vivo
- protocol conditions: 100 mg/kg, average of two runs, 24 hour, read-out: Amount of test compd. in plasma, Average
measurement label: concentration at 24 h

Input: Quick check: concentration at 24 h of CN1CCN(c2cc3c(cc2F)c(=O)c(C(=O)O)cn3-c2ccc(O)cc2)CC1 ?
Output: < 550 ng/mL

----------
- protocol description: Absorption by oral administration in monkey (plasma concentration, thin layer cup bio-assay);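 note: plasma concentration in γ/ml (µg/mL) rather than the printed ng/mL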
- Assay type: in vivo
- protocol conditions: 100 mg/kg, Run 2, 0.5 hour, read-out: Amount of test compd. in plasma
measurement label: concentration at 0.5 h

Input: Quick check: concentration at 0.5 h of CN1CCN(c2cc3c(cc2F)c(=O)c(C(=O)O)cn3-c2ccc(O)cc2)CC1 ?
Output: < 390 ng/mL
